- MEASURED_ON: CaCYP51 G450E (Candida albicans, UniProt P10613, G450E)
- Construct: made in house; host or cells: E. coli DH5α (pCWori+)
- TEST_SUMMARY: CYP51 reconstitution assay
- Format: biochemical
- REPORTED_CONDITIONS: 0.25 h, 4 μM triazole, % of activity without triazole, read-out: Residual CYP51 activity (%) ± SD
- Procedure: Azole antifungal agents were added in 2.5 μl dimethyl sulfoxide, followed by 10 min of incubation at 37°C prior to assay initiation with 4 mM β-NADPH-Na4. The samples were then shaken for 15 min at 37°C. […]
MEASURE: remaining activity at 4 µM (%)
# value in %; strip the unit string

Consider the reported remaining activity at 4 µM for these compounds:
INSERT INTO assay_data (compound, measure, reported_result) VALUES
  ('C[C@@H](c1ncncc1F)[C@](O)(Cn1cncn1)c1ccc(F)cc1F [Voriconazole, voriconazole]', 'remaining activity at 4 µM', 3.5),
  ('OC(Cn1cncn1)(Cn1cncn1)c1ccc(F)cc1F [Fluconazole, fluconazole]', 'remaining activity at 4 µM', 18.9);

Moving on to another compound below.
Inquiry: What reported remaining activity at 4 µM corresponds to CC[C@@H]([C@H](C)O)n1ncn(-c2ccc(N3CCN(c4ccc(OC[C@@H]5CO[C@@](Cn6cncn6)(c6ccc(F)cc6F)C5)cc4)CC3)cc2)c1=O [Posaconazole, posaconazole] on CaCYP51 G450E (Candida albicans, UniProt P10613, G450E)?
Reply text: 15.6
